Percent Effect values, listed per item
# Test system: Wolbachia pipientis
# Test method notes: Anti-Wolbachia Cell-Based Screen
# Format: functional
# Set-up: scale not given: in the data most compounds retested in dose-response had high values
# Protocol conditions: 5 µM
The campaign covered roughly 48,000 compounds. About 13,000 (27%) showed an effect of 50% or more. The list shows a part of the results.
Give your result in % as a bare value.

Checklist item: Percent Effect tested on Wolbachia pipientis, entry Cc1ccc(C2CN(C(=O)c3c(C)cc(C)[nH]c3=O)CCO2)c(C)c1 (stereo unspecified) , value? 7.803

Hi! What's the reported Percent Effect for CN(C)C(CNC(=O)c1nc(N2CCCC2)ncc1Cl)c1ccco1 (stereo unspecified) on Wolbachia pipientis? 2.501

Missing value: Percent Effect, Wolbachia pipientis, entry CCN(Cc1ccncc1)C1CCCN(Cc2ccc(F)cc2Cl)C1 (stereo unspecified) . Fill in? -7.648

Others:
Query for Wolbachia pipientis: what Percent Effect does the record show for Cc1cc(NC(=O)CN(c2ccccc2)C(C)C)on1 ? -6.846

Notebook entry, Wolbachia pipientis assay: Percent Effect of Cc1nc[nH]c1CN1CCCn2nc(CN3CCC(F)(F)CC3)cc2C1 = ? 5.091

Notebook: pull reported Percent Effect for Wolbachia pipientis, entry Cn1cnc2c(-c3cccnc3)nc(C3CCN(S(C)(=O)=O)CC3)cc21 -22.74

Percent Effect of CC(C)(C)OC(=O)N1CCCN1C(=O)c1cccc(F)c1F on Wolbachia pipientis? -1.297

Checklist item: Percent Effect tested on Wolbachia pipientis, entry Cc1nc(CNC(=O)N(Cc2ccccc2)CC(C)(C)O)oc1C , value? -21.53

Under Wolbachia pipientis: Percent Effect value of CC(C)c1nc(S(=O)(=O)N2CCSc3ccccc32)c[nH]1 ? -4.998

Return Percent Effect measured with Wolbachia pipientis given this molecule: CCNc1nc(-c2cccnc2)c(-c2ccnc(NCCO)n2)s1 103.5

Form: Entry = CC(C)C(=O)N(C)Cc1nc(N2CCCC2)ncc1-c1ccncc1.Cl | System = Wolbachia pipientis | Percent Effect = ____ 82.87
